- Tested on: MT4
- Protocol text: Compound was tested for potency to achieve protection of MT-4 cells from 106A strain of HIV-1 virus
- Type: functional, cell-based
- Condition context: Homo sapiens
Counter-ions that a name gives are not always drawn.
Observable: IC50 (nM)

Molecule | Target under test | Observable | Test value
N#Cc1ccc(NC(=S)NC(=N)Cc2c(Cl)cccc2Cl)cc1 | MT4 | IC50 | 382
CC(=O)c1ccc(C)cc1NC(C(N)=O)c1c(Cl)cccc1Cl (stereo not drawn) [LOVIRIDE] | MT4 | IC50 | 1000
CC(C)Nc1cccnc1N1CCN(C(=O)c2cc3cc(NS(C)(=O)=O)ccc3[nH]2)CC1 [DELAVIRDINE MESYLATE] | MT4 | IC50 | 1590
